- STUDY_TARGET: Corticotropin-releasing factor receptor 2 (Homo sapiens, UniProt Q13324)
- Sequence (Q13324 whole entry): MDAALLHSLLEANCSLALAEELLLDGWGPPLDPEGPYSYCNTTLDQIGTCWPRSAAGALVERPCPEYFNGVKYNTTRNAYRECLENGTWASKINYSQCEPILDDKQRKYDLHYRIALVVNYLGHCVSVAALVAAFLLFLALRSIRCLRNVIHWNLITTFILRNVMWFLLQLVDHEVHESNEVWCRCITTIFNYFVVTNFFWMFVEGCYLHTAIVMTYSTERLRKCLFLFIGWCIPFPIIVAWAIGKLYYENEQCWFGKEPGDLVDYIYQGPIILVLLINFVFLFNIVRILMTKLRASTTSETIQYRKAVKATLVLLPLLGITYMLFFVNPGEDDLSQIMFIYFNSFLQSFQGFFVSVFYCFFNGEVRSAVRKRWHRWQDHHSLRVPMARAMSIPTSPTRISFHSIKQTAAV
- TEST_DETAILS: Homogeneous Time-Resolved Fluorescence Assay: Chinese hamster ovary (CHO) cells expressing either the human or rat recombinant CRF-1 or human CRF-2alpha (Chen et al, Proc Natl Acad Sci USA 90, 8967-8971, 1993; Liaw et al, Endocrinology 137, 72-77, 1996) are propagated in Dulbecco's modified Eagle medium supplemented with 10% foetal calf serum, non-essential amino acids, 100 U/ml penicillin, 100 mg/l streptomycin and 1 g/l geneticin. CHO cells expressing the rat CRF-2beta receptor (Wu et al, Endocrinology 148, 1675-1687, 2007) are propagated in HAM's-F12 Glutamax supplemented with 10% foetal calf serum, 100 IU/ml penicillin, 100 mg/l streptomycin, 600 ug/ml hygromycin, 10 ug/ml blasticidin and induced with 1 ug/ml of tetracyclin for 24 hours prior to experimentation. For cyclic AMP determinations the Homogeneous Time-Resolved Fluoresce (HTRF) CAMP dynamic 2 kit (Cisbio International, France) was used as per manufacturers' instructions.
pIC50: −log10 of the molar value.
ATTRIBUTE_MEASURED: pIC50

* CCc1cc(C)n(C[C@H]2CC[C@H](NC(=O)c3cc(C(F)(F)F)ccc3Cl)CC2)n1 | 5.69
* CCc1[nH]nc(NC[C@H]2CC[C@H](NC(=O)c3cc(Cl)cnc3C)CC2)c1C | 5.31
* Cc1ncc(Cl)cc1C(=O)N[C@H]1CC[C@@H](Cn2nc(-c3ccccc3)cc2C)CC1 | 5.31
* Cc1ncc(Cl)cc1C(=O)N[C@H]1CC[C@@H](Cn2nc(-c3ccc(F)cc3)cc2C)CC1 | 5.33
* O=C(N[C@H]1CC[C@H](Cn2cc(Cl)c(CO)n2)CC1)c1cc(C(F)(F)F)ccc1Cl | 5.31
* Cc1ncc(Cl)cc1C(=O)N[C@H]1CC[C@H](Cn2nc(-c3cccnc3)cc2C)CC1 | 5.43

These entries and their values trace back to ChEMBL document CHEMBL3639007.
